# Tested on: Rattus norvegicus
# assay_info: Antihyperglycemic activity in albino Rattus norvegicus Sprague-Dawley (rat) streptozotocin-induced diabetic model assessed as effect on AUC of blood glucose level at 100 mg/kg, po after 24 hr
# Format: functional
Outcome label depends on Activity relative to 10%: at/above gives class 1, below gives class 0.

Record excerpt, results attached:
>>> class_label("COc1c(-c2ccccc2)oc2c(ccc3occc32)c1=O [KARANJIN]")
"class 0"
>>> class_label("C=CCOc1c(-c2ccccc2)oc2c(ccc3occc32)c1=O [3-O-ALLYLKARANJONOL]")
"class 0"

Does Activity meet or surpass 10% for O=C(COc1c(-c2ccccc2)oc2c(ccc3occc32)c1=O)c1ccccc1 [3-O-(2-OXO-2-PHENYL-ETHYL)-KARANJONOL] ? class 1

Does Activity meet or surpass 10% for CC(=O)OC[C@H]1O[C@@H](Oc2c(-c3ccccc3)oc3c(ccc4occc43)c2=O)[C@H](OC(C)=O)[C@@H](OC(C)=O)[C@@H]1OC(C)=O [3-OTETRAACETYLGLUCOPYRANOSYLKARANJONOL] ? class 0
